Values were extracted from paper PMC7796304.

# System: isolated kidney cells (IKC)
# TEST METHOD NOTES: LDH release cytotoxicity, time and concentration course, in isolated kidney cells
# RUN PARAMETERS: 0-1.5 mM, up to 90 min
READOUT NAME: nephrotoxic potential among the metabolites tested

                                   compound                target_system  readout_value
0  Nc1cc(Cl)cc(Cl)c1O [2-A-4,6-DCP, 2-amino-4,6-dichlorophenol]  isolated kidney cells (IKC)  not cytotoxic
1  CC(=O)Nc1cc(Cl)cc(Cl)c1 [3,5-DCAA, 3,5-dichloroacetanilide]  isolated kidney cells (IKC)  not cytotoxic
